Test system: Saccharomyces cerevisiae
Assay: protein stability index of tFT-peptide fusion (C-terminal peptide) (PSI (0-1 scale)); higher = more stable (slower turnover);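 also: PSI is a weighted mean of sequencing reads over stability bins, variants kept only with over 10 reads, mCherry proximal and sfGFP distal, peptide attached via GGGS linker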
Details: genetic background: das1 deletion; temperature: 30 C
Measured protein stability index, listed per entry.
Value Type: protein stability index

1) AGTLLLGYGILA : 0.342
2) RDPLAPLLLAIP : 0.587
3) VVACCVVFWVLP : 0.27
4) VDSTCLLITLLA : 0.348
5) LPLPPPGSPPPL : 0.668
6) LGVLVVAFCGGC : 0.354
7) PSLVFLPPPPPR : 0.677
8) SCCLLICIFFIF : 0.306
9) LAFMYFVCPRLA : 0.56
10) LFFPLPGILSFF : 0.631
11) RSGWWQWGRPGT : 0.661
12) FLFLLLFLLLCC : 0.377
13) RFLFYSFPIHTL : 0.572
14) LGALFGRFWWYF : 0.654
15) GVCSFFVCVFFV : 0.233
16) IFHWLYLLIALI : 0.436
17) VWLAWCIVGGLG : 0.386

* * *

Tested on: Saccharomyces cerevisiae
Assay: protein stability index of tFT-peptide fusion (C-terminal peptide) (PSI (0-1 scale)); higher = more stable (slower turnover)
Details: genetic background: wild type; temperature: 30 C
Measured protein stability index, listed per entry.
Value Type: protein stability index

1) RMKGTNKEGKKK : 0.693
2) IRVATIQSTMYI : 0.643
3) PFSSFLSLFPIL : 0.7
4) SRGNYKLIWSDT : 0.731
5) PHVLAALTSYTP : 0.688
6) SLSLRPPPYPPP : 0.578
7) SGGTDMLALRVR : 0.632
8) PVAQSCHAPSPP : 0.623
9) IVWCAINYLFRS : 0.63
10) ACRREMISVLYT : 0.624
11) EKRDKREVRPGK : 0.663
12) FILSLSFVFSRP : 0.405
13) SSLPSFPTKCPF : 0.71
14) MNRHLHFLSPET : 0.648
15) ACPLPPLPTPLP : 0.736
16) TAVPPLFARTWQ : 0.679
17) QLSSARTILRRP : 0.597
18) PHPHRPPRSFLL : 0.704
19) PPTPLIPPLPLH : 0.716
20) AEAVQQGVTIGG : 0.68
21) RFASGAVLSWAC : 0.695
22) DSILYKKYKQLG : 0.559
23) IRSLKTSPLMRG : 0.704
24) YKRKTKMQRVSN : 0.627
25) ATHPPPPPLPPI : 0.648
26) PPPHSPLPAPPR : 0.76
27) VRNKGVAKDHCP : 0.661
28) HRDRPYTPLSRF : 0.722
29) KVFHTDSNPNNK : 0.663
30) ASIPAPRLTPRA : 0.681
31) RRPPPPSPPPPP : 0.709
32) ALPLPLLACSPL : 0.627
33) IDDITMYRKKYR : 0.66
34) SPRHAGSSAWRP : 0.674
35) EFERWCGLGRFG : 0.744
36) SFRQSRLKRRGY : 0.672
37) GWWCGGGGAWSG : 0.719
38) SESKGAMCQRNA : 0.647
39) YPPPRPDLPLLQ : 0.679
40) RRLRGGTQAEGE : 0.682
41) LYPSFSHTPPPT : 0.69
